The values you see were collected from patent US20250101098A1.

Target: T1, human nectin-4 protein expressed on the surface of cells (human, UniProt Q96NY8 32-510)
T1 sequence: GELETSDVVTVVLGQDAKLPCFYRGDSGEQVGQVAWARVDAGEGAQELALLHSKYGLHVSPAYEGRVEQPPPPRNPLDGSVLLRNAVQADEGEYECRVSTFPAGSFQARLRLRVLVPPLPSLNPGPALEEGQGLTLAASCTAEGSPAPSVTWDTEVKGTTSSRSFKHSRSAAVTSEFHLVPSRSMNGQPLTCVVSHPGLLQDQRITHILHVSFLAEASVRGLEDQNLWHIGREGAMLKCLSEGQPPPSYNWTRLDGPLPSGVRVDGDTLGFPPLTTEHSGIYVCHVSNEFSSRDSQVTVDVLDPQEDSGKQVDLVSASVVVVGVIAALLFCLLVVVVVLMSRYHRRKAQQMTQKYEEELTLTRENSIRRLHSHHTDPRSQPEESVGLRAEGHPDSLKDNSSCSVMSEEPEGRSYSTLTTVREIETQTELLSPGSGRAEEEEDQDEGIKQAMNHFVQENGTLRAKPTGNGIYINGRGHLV
Assay: cell-based or functional assay
Provide the recorded IC50, in vitro potency, HEK Cells + Nectin-4 for the entries that follow.

Take a look at these entries with their results.
binder	reading
Nectin-4 Hybridoma 6C8H/6C8L (recombinant chimeric antibody) (antibody, V domains shown) VH: QVQLKQSGPGLVQPSQSLSITCTVSGFSLSTYGVHWVRQSPGKGLEWLGVIWSGGSTDYNAAFISRLTISKDNSKSQIFFKMNSLQADDTAIYYCARMMSWYFDVWGTGTTVTVSS VL: DIVMTQSQKFMSTSVGDRVSVTCKASQNVVTNVAWYQQKPGQSPKALIYSASYRYSGVPDRFTGSGSGTDFTLTISNVQSEDLAEYFCQQYNSYPLTFGAGTKLELK	0.573 nM
Nectin-4 7H10H/7H10L (recombinant chimeric antibody) (antibody, V domains shown) VH: QVQLQQPGAELVKPGASVKLSCKASGYTFTTYWMHWVKQRPGRGLEWIGGIDPYGAHIKYNEMFKTKATLTVDKPSSTAYMQLSSLTSEDSAVYYCARGDYSNWWWTYWGQGTLVTVSA VL: DIVMTQSQKFMSTTVGDRVSITCKASQNVGTAVAWYQQIPGQSPKLLIYSASNRYTGVPDRFTGSGSGTDFTLTITNMQSEDLADYFCQHYSSYPWTFGGGTKLEIK	0.549 nM

Please turn your attention to the following entry.
Challenge: Query: IC50, in vitro potency, HEK Cells + Nectin-4; subject: Nectin-4 7 E8H/7 E8L (recombinant chimeric antibody) (antibody, V domains shown) VH: QVQLKQSGPGLVQPSQSLSITCTVSGFSLATYGVHWVRQSPGKGLEWLGVIWSGGSTDYNAAFISRLSISKDNSKSQVFFKMNSLQADDTAIYYCARNSHWYFDVWGTGTTVTVSS VL: DIVMTQSQKFMSTSVGDRVSVTCKASQNVVTNVAWYQQKPGQSPKALIYSASYRYSGVPDRFTGSGSGTDFTLTISHVQSEDLAEYFCHQYNNYPYTFGGGTKLEIK
Response given: 0.89 nM
